molecular target: BMP-2-inducible protein kinase (Homo sapiens); note: in the data inactive means no Kd found up to 30 µM
Sequence (Q9NSY1 whole entry): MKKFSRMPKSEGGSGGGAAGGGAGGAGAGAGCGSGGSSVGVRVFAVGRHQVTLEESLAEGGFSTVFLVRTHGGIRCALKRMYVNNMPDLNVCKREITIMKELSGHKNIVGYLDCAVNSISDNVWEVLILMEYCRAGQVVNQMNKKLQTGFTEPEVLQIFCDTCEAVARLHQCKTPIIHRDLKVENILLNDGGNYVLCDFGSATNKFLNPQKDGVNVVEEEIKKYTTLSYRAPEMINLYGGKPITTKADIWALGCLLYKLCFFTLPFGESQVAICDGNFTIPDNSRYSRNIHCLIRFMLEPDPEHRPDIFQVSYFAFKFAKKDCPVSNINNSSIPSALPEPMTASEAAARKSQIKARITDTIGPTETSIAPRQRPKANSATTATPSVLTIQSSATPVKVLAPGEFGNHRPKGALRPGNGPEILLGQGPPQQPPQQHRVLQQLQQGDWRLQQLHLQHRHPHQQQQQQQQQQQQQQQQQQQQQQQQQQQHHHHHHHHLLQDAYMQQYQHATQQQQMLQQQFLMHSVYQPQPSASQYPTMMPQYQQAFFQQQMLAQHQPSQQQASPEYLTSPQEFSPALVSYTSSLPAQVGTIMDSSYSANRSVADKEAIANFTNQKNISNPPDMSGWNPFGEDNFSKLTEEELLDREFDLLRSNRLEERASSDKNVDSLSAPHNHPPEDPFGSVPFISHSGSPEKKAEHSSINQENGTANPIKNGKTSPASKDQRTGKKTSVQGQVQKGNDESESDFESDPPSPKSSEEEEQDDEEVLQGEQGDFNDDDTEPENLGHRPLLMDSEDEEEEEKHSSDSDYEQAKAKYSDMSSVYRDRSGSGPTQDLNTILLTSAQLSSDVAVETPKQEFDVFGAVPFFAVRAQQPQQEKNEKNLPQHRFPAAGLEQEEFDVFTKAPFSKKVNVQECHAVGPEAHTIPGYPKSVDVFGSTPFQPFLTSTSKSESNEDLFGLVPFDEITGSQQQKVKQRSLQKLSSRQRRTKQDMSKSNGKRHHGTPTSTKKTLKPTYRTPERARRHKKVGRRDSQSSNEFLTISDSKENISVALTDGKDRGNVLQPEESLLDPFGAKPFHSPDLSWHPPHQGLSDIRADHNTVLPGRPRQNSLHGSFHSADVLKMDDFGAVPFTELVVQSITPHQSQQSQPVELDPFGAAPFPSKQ
Calls of active or inactive are those of the source.
Parameter call: string, one of active, inactive

Consider the worked cases shown below.
[
  {
    "Molecule": "O=C(Nc1nc2cccc(-c3ccc(CN4CCS(=O)(=O)CC4)cc3)n2n1)C1CC1 [FILGOTINIB]",
    "Class assignment": "active"
  },
  {
    "Molecule": "Cc1cc(Nc2ncc(Cl)c(Nc3ccccc3S(=O)(=O)C(C)C)n2)c(OC(C)C)cc1C1CCNCC1 [CERITINIB]",
    "Class assignment": "inactive"
  },
  {
    "Molecule": "Cc1nc2cc(-c3nn(C(C)C)c4ncnc(N)c34)ccc2o1",
    "Class assignment": "inactive"
  },
  {
    "Molecule": "COc1ccc(S(=O)(=O)N(C(C)=O)c2ccccc2/C=C/c2cc[n+]([O-])cc2)cc1 [HMN-214]",
    "Class assignment": "inactive"
  }
]

Let's switch to this molecule now.
Lookup: In this assay, the call recorded for NC1(c2ccc(-c3nc4ccn5c(=O)[nH]nc5c4cc3-c3ccccc3)cc2)CCC1 [MK-2206] was what?
Found: inactive
